Numbers sourced from ChEMBL document CHEMBL1201862.

- Test system: BT-549
- Test method notes: NCI tumour cell line growth inhibition, 48 h
The source made the active and inactive calls. Cut-off read from the data, not from the text of the source: active = GI50 up to about 1.1 µM and inactive = higher.
Please state which outcome applies, choosing from yes (1) (active), no (0) (inactive)

Field: outcome | Entry: Cc1cc(C)c(C)c(-n2[nH]c(=O)n(C)c2=O)c1C
no (0)

Field: outcome | Entry: Fc1cc(C2=C[C@H](c3ccc4c(c3)OCO4)NC(=S)N2)c(Cl)cc1Cl
no (0)

Field: outcome | Entry: COc1cccc2c1C(=O)c1c(O)c3c(c(O)c1C2=O)C[C@@](O)(C(C)=O)C[C@@H]3OC1CC(N(C)C)C(O)C(C)O1 (stereo partly drawn)
yes (1)

* * *

- Test system: TK-10
- Test method notes: NCI tumour cell line growth inhibition, 48 h
Calls of active or inactive are those of the source. Cut-off read from the data, not from the text of the source: active = GI50 up to about 1.1 µM and inactive = higher.
Please state which outcome applies, choosing from active, inactive

Field: outcome | Entry: Nc1ccc2c(c1)C(=O)N(O)C2=O
inactive

Field: outcome | Entry: Clc1ccc(/C=C/c2nc3ccccc3s2)cc1Cl
inactive

Field: outcome | Entry: CCCCCCCCC/C=C1/CC(CO)(COC(=O)C2CCCCC2)OC1=O (centres undefined)
inactive

Field: outcome | Entry: CSc1nc(NC2OC(COC(C)=O)C(OC(C)=O)C(OC(C)=O)C2OC(C)=O)c(/N=C/C=N/c2c(NC3OC(COC(C)=O)C(OC(C)=O)C(OC(C)=O)C3OC(C)=O)nc(SC)[nH]c2=O)c(=O)[nH]1 (centres undefined)
inactive

Field: outcome | Entry: CCOC(=O)N1C/C(=C\c2ccccc2)C(=O)/C(=C/c2ccccc2)C1
inactive

Field: outcome | Entry: N#CC(=C1C=CC(=NO)C=C1)c1ccc(Cl)cc1
inactive

Field: outcome | Entry: CCCCCCCCCCCCCCCCOCC(COP(=O)([O-])OCC[n+]1ccc(N(C)C)cc1)OCC (centres undefined)
inactive

Field: outcome | Entry: CC1(Br)C(=O)NC(=O)N(C2CC(N=[N+]=[N-])C(CO)O2)C1N=[N+]=[N-] (centres undefined)
inactive

Field: outcome | Entry: O=C(/C=C/c1ccccc1)c1cc(CN2CCOCC2)c(O)c(CN2CCOCC2)c1
inactive

Field: outcome | Entry: O=C(n1[nH]c(=O)n(-c2ccc([N+](=O)[O-])cc2)c1=O)C(Cl)(Cl)Cl
inactive

Field: outcome | Entry: COc1ccc(C[C@H]2NC[C@H](O)[C@H]2OC(C)=O)cc1 [ANISOMYCIN]
active

Field: outcome | Entry: COC1C(N(C)C)=C(c2ccccc2)C(=O)N2CCc3ccccc3C12 (centres undefined)
inactive

Field: outcome | Entry: C=C(COC(C)=O)CC(OC(C)=O)c1ccccc1 (centres undefined)
inactive

Field: outcome | Entry: Cc1ccc(-c2cc(-c3ccco3)c(C#N)c(=O)n2C2OC(OC(=O)c3ccccc3)C(OC(=O)c3ccccc3)C2OC(=O)c2ccccc2)cc1 (centres undefined)
inactive

* * *

- System: EKVX
- Test method notes: NCI tumour cell line growth inhibition, 48 h
Calls of active or inactive are those of the source. Rule as the data show it: active = GI50 up to about 1.1 µM and inactive = higher.
Property label: GI50

The reported EKVX GI50 of COC(=O)n1c(=O)n(-c2ccccc2)c(=O)n1C(=O)Nc1ccccc1 is > 100 µM (inactive)

The reported EKVX GI50 of O=C(O)c1ccccc1/C=C1\Cc2ccccc2C1=O is > 100 µM (inactive)

The reported EKVX GI50 of O=C1CCCC2C3CC(CN12)C1CCCCN1C3.[O-][Cl+3]([O-])([O-])O (stereo not given) is > 100 µM (inactive)

The reported EKVX GI50 of NCCCCN(CCCN)C(=O)OCc1ccccc1 is > 100 µM (inactive)

The reported EKVX GI50 of Cc1ccc(S(=O)(=O)c2ccc(C)cc2[N+](=O)[O-])c([N+](=O)[O-])c1 is > 100 µM (inactive)

The reported EKVX GI50 of O=C1CCC(c2ccccc2)C(O)(C(=O)O)C1 (stereo not given) is > 100 µM (inactive)

The reported EKVX GI50 of C=C1C[C@@H](O)[C@@H](Br)C(C)(C)[C@]12CCC(C)(Cl)C(Br)C2 (stereo not given in full) is 4.35 µM (inactive)

The reported EKVX GI50 of N#Cc1nc(-c2ccccn2)c(-c2ccccn2)nc1C#N is 3.15 µM (inactive)

The reported EKVX GI50 of Clc1ccc(CNc2nc(Cl)c3nc[nH]c3n2)cc1Cl is 25.2 µM (inactive)

The reported EKVX GI50 of O=C1C=C(Br)c2c(Br)sc(Br)c21 is 18 µM (inactive)

The reported EKVX GI50 of CON(C)C(=O)[C@H]1C[C@@]1(C)CO is > 100 µM (inactive)

The reported EKVX GI50 of C[n+]1c(-c2ccc(/C=N/Nc3n[nH]c(=S)n3N/N=C/c3ccc(-c4cn5ccccc5[n+]4C)cc3)cc2)cn2ccccc21 is > 100 µM (inactive)

The reported EKVX GI50 of O=C1CC(CC(=O)C2CCCCC2=O)C(=O)N1 (stereo not given) is > 100 µM (inactive)

The reported EKVX GI50 of CCOC(=O)c1[nH]c2cccc3c2c1CC(Br)C3=O (stereo not given) is 17.5 µM (inactive)

The reported EKVX GI50 of Cc1ccc(S(=O)(=O)N(/N=C(\N)Oc2ccc(Cl)cc2)C(=N)Oc2ccc(Cl)cc2)cc1 is > 100 µM (inactive)
